Tested on: HepG2 Srxn1-GFP reporter cells (+30 nM CDDO-Me)
Assay: Srxn1-GFP intensity median modified Z-score relative to plate median; higher = stronger NRF2 / oxidative stress reporter activation, active = hit call of the paper
Details: 10 µM; exposure time: 24h
Screen size: about 2,300 compounds; about 330 (14%) showed activity.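 Rule for the calls: active = median modified Z-score above 1.96; inactive = 1.96 or below.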 A selection follows.
Possible outcomes: true for active, false for inactive

| Molecule | Measured On | Class |
| --- | --- | --- |
| COc1cc(C=CC(=O)CC(=O)C=Cc2ccc(O)c(OC)c2)ccc1O [euspeclibcmpd1307] | HepG2 Srxn1-GFP reporter cells (+30 nM CDDO-Me) | true |
| CCOC(=O)CCC(=O)O[C@H]1[C@H](O[C@@H]2[C@@H](C)[C@H](O[C@H]3C[C@@](C)(OC)[C@@H](O)[C@H](C)O3)C(C)C(=O)O[C@H](CC)[C@@](C)(O)[C@H](O)C(C)C(=O)C(C)C[C@@]2(C)O)O[C@H](C)C[C@@H]1N(C)C (some centres not stated) [euspeclibcmpd114] | HepG2 Srxn1-GFP reporter cells (+30 nM CDDO-Me) | false |
| COC(=O)[C@H]1[C@H]2C[C@@H]3c4[nH]c5cc(OC)ccc5c4CCN3C[C@H]2C[C@@H](OC(=O)c2cc(OC)c(OC)c(OC)c2)[C@@H]1OC [euspeclibcmpd2385] | HepG2 Srxn1-GFP reporter cells (+30 nM CDDO-Me) | true |
| CN1CCC(=C2c3ccccc3CCc3sccc32)CC1 [euspeclibcmpd488] | HepG2 Srxn1-GFP reporter cells (+30 nM CDDO-Me) | false |
| CC(N=C(N=c1cc[nH]cc1)NC#N)C(C)(C)C (configuration not stated) [euspeclibcmpd960] | HepG2 Srxn1-GFP reporter cells (+30 nM CDDO-Me) | false |
| COc1cc(O)c(C(=O)C=Cc2ccc(OC)c(O)c2)c(OC)c1 [euspeclibcmpd1967] | HepG2 Srxn1-GFP reporter cells (+30 nM CDDO-Me) | true |
| c1ccc(C2CN3CCSC3=N2)cc1 (configuration not stated) [euspeclibcmpd2122] | HepG2 Srxn1-GFP reporter cells (+30 nM CDDO-Me) | false |

* * *

Srxn1-GFP intensity median modified Z-score: recorded values
System: HepG2 Srxn1-GFP reporter cells (+30 nM CDDO-Me)
Experiment: Srxn1-GFP intensity median modified Z-score relative to plate median; higher = stronger NRF2 / oxidative stress reporter activation, active = hit call of the paper
Details: 10 µM; exposure time: 24h
Among all 2,300 compounds or so, about 330 (14%) showed activity. Only a sample is shown.
Observable: Srxn1-GFP intensity median modified Z-score

| Molecule | Value Observed |
| --- | --- |
| CC(=O)C(N)C(O)O (centres undefined) | -0.112 |
| CC(=O)OCC(COC(C)=O)OC(C)=O | 0.397 |
| C=CCCCCCCCCC(=O)O | 0.331 |
| COC(=O)C[C@H]1C(C)(C)C(=O)C2CC3=C4CC(=O)O[C@@H](c5ccoc5)[C@]4(C)CCC3[C@@]1(C)C2=O (some centres undefined) | -0.00623 |
| C=CCCCCCCCCCCCC(O)CC(O)CO (centres undefined) [euspeclibcmpd2211] | 2.24 |
| O=C(O)C1CC(=O)C(O)C(O)C1 (centres undefined) | -0.321 |
| CC(=O)OCC(OC(C)=O)C(OC(C)=O)C(OC(C)=O)C(OC(C)=O)C(COC(C)=O)OC(C)=O (centres undefined) | -0.434 |
| C=CCCCCCCCCCCCC(O)CC(O)CO (centres undefined) [euspeclibcmpd1371] | 1.62 |
| N=c1[nH]c(N)ccc1N=Nc1ccccc1 | 0.85 |

* * *

System: HepG2 Srxn1-GFP reporter cells (+30 nM CDDO-Me)
Test: Srxn1-GFP intensity median modified Z-score relative to plate median; higher = stronger NRF2 / oxidative stress reporter activation, active = hit call of the paper
Settings: 10 µM; exposure time: 24h
Among all 2,300 compounds or so, about 330 (14%) showed activity. The list is a sample of the results.
Below: a set of entries, each annotated with reported Srxn1-GFP intensity median modified Z-score.
Observable: Srxn1-GFP intensity median modified Z-score

| Molecule | Value Observed |
| --- | --- |
| COc1ccc2c(c1)OCC(Cc1ccc(OC)c(OC)c1)C2=O (centres undefined) | 15.4 |
| Oc1cccc2cc3cccc(O)c3c(O)c12 | -0.419 |
| O=C1OC(CN2CCOCC2)CN1/N=C/c1ccc([N+](=O)[O-])o1 (centres undefined) | 0.605 |
| Cc1cccc(N=c2cc[nH]cc2S(=O)(=O)NC(=O)NC(C)C)c1 | 0 |
| Oc1cn2c(n1)Nc1ccc(Cl)c(Cl)c1C2 | -0.784 |
| O=c1[nH]c(O)cn1/N=C/c1ccc([N+](=O)[O-])o1 | 0.292 |
| O=C(N/N=C/c1ccc([N+](=O)[O-])o1)c1ccc(O)cc1 | 0.949 |
| Cc1cc(O)c2c(O)c3c(O)cccc3cc2c1 | 2.58 |
| O=C(O)C1CSCN1C(O)c1ccc(O)[nH]1 (centres undefined) | -0.1 |

* * *

Tested on: HepG2 Srxn1-GFP reporter cells (+30 nM CDDO-Me)
Assay: Srxn1-GFP intensity median modified Z-score relative to plate median; higher = stronger NRF2 / oxidative stress reporter activation, active = hit call of the paper
Conditions: 10 µM; exposure time: 24h
The campaign covered roughly 2,300 compounds. About 330 (14%) showed activity. These entries were drawn from the full list.
A collection of compounds and their measured Srxn1-GFP intensity median modified Z-score
Observable: Srxn1-GFP intensity median modified Z-score

| Compound | Value Observed |
| --- | --- |
| COc1ccc2c(c1)OC[C@@H](Cc1ccc(OC)c(OC)c1)[C@@H]2O | 1.04 |
| CC(=O)OC1C[C@@]2(C)C(C[C@@H](O)C3[C@]2(C)CC[C@H]2[C@H](C)[C@H](O)CC[C@]32C)C1=C(CCC=C(C)C)C(=O)O (stereo not given in full) | -0.739 |
| CC(CCC(=O)O)C1CC[C@H]2C3[C@H](O)C[C@@H]4C[C@H](O)CCC4(C)[C@H]3C[C@H](O)C12C (stereo not given in full) | -0.323 |
| COCC1(C)NC(=O)N(CCC(=O)Nc2cc(C)on2)C1=O (stereo not given) | 1.16 |
| COc1ccc2c(c1)OCC(Cc1ccc(OC)c(OC(C)=O)c1)C2=O (stereo not given) | 1.39 |
| CC[C@@H](CO)NCCN[C@@H](CC)CO | -0.816 |
| CCCCCCCCCCCCCCCC(=O)OC[C@H](NC(=O)C(Cl)Cl)[C@H](O)c1ccc([N+](=O)[O-])cc1 | 0.231 |
| CCOc1ccc2[nH]c3cc(N)ccc3c(=N)c2c1 | 63.5 |
| Cc1n[nH]c(=NS(=O)(=O)c2ccc(N)cc2)s1 | -0.64 |
| COc1ccc2c(c1)OCC(Cc1ccc(O)c(OC)c1)C2=O (stereo not given) | 0.677 |
| Cc1c2oc3c(C)ccc(C(=O)OC(C)C4NC(=O)C(C(C)C)N(C)C(=O)CN(C)C(=O)C5CCCN5C(=O)C(C(C)C)NC4=O)c3[nH]c-2c(C(=O)OC(C)C2NC(=O)C(C(C)C)N(C)C(=O)CN(C)C(=O)C3CCCN3C(=O)C(C(C)C)NC2=O)c(=N)c1=O (stereo not given) | -2.39 |
| CON=C(C(=O)NC1C(=O)N2C(C(=O)O)=C(CSc3nnnn3C)CSC12)c1csc(=N)[nH]1 (stereo not given) | -0.115 |
| CON=C(C(=O)N[C@@H]1C(=O)N2C(C(=O)O)=C(COC(C)=O)CS[C@H]12)c1csc(=N)[nH]1 | -0.173 |
| COc1ccc2c(c1)OCC(Cc1ccc(OC)c(O)c1)C2=O (stereo not given) | 21.4 |
| CON=C(C(=O)NC1C(=O)N2C(C(=O)O)=C(C[N+]3(C)CCCC3)CSC12)c1csc(=N)[nH]1 (stereo not given) | 35.8 |

* * *

Listing of recorded Srxn1-GFP intensity median modified Z-score by entry.
Tested on: HepG2 Srxn1-GFP reporter cells (+30 nM CDDO-Me)
Assay: Srxn1-GFP intensity median modified Z-score relative to plate median; higher = stronger NRF2 / oxidative stress reporter activation, active = hit call of the paper
Settings: 10 µM; exposure time: 24h
About 330 (14%) of roughly 2,300 compounds showed activity. Not all results are given here.
Observable: Srxn1-GFP intensity median modified Z-score

| Compound | Value Observed |
| --- | --- |
| CCC(CCC(C)[C@H]1CCC2C3CC=C4C[C@@H](O)CC[C@]4(C)C3CC[C@@]21C)C(C)C (some centres undefined) | -0.236 |
| CON(C)C(=O)c1cc(-c2ccccc2)nc2ccccc12 | 1.63 |
| CN1CCN(C(=O)Oc2c3nccnc3c(O)n2-c2ccc(Cl)cn2)CC1 | -0.245 |
| CC1(C(=O)O)CCC2(C)CCC3(C)C(=C2C1)CC(=O)C1C2(C)CCC(O)C(C)(C)C2CCC13C (centres undefined) | -0.0731 |
